Test system: large crabgrass (Digitaria sanguinalis)
Assay: Test B pre-/postemergence plant response
Format: in vivo
Details: Postemergence, 31 g ai/ha; scale 0 to 100 (0 no effect, 100 complete control)
readoutName: Plant response rating, Crabgrass, Large

{"querySmiles": "O=C1CCCC(O)=C1C(=O)c1cnc(-c2ccccc2)n(-c2ccc(F)cc2)c1=O", "reported": 70}
{"querySmiles": "O=C1CCCC(O)=C1C(=O)c1cnc(-c2cccc(Cl)c2)n(-c2ccccc2)c1=O", "reported": 80}
{"querySmiles": "Cc1cc(F)ccc1-n1c(-c2ccccc2)ncc(C(=O)C2=C(O)CCCC2=O)c1=O", "reported": 85}
{"querySmiles": "Cc1ccc(-n2c(-c3cccc(Cl)c3)ncc(C(=O)C3=C(O)CCCC3=O)c2=O)cc1", "reported": 75}
{"querySmiles": "Cc1cccc(-n2c(-c3cccc(Cl)c3)ncc(C(=O)C3=C(O)CCCC3=O)c2=O)c1", "reported": 65}
